System: carmine spider mite
Test: Bioactivity test against carmine spider mite (airbrush spray)
Assay type: in vivo
Details: 600 mg/L, contrastive test (Table 135)
Method: Compounds were dissolved in mixed solvent (acetone:methanol=1:1), and diluted to required concentration with water containing 0.1% of tween 80. […] The method: Broadbean shoots with two true leaves in pot were taken, the healthy adults of carmine spider mite were inoculated to the leaves. The adults were counted and then sprayed with airbrush at the pressure of 0.7 kg/cm^2 and at dose of 0.5 ml. […] Scores were conducted and mortalities were calculated after 72 hrs.
Some compounds, each annotated with its measured Insecticidal activity against carmine spider mite (%).
metric: Insecticidal activity against carmine spider mite (%)

Cc1cc(N(C)Cc2c(C)nn(-c3ccccc3)c2C)nc(C)n1: 58
Cc1nc(C)c(C)c(N(C)Cc2cnn(-c3ccccc3)c2)n1: 56
CCc1ncnc(NC(C)COc2ccn(-c3ccc(Cl)cc3)n2)c1Cl (centres unmarked): 100
CC(COc1ccn(-c2ccc(Cl)cc2)n1)Nc1ncnc2scc(Cl)c12 (centres unmarked): 100
Cc1cc(N(C)Cc2cnn(-c3ccccc3)c2)nc(C(C)C)n1: 59

====

Some compounds, each annotated with its measured protective activity (%) against cucumber downy mildew.
tested on: cucumber downy mildew; experiment: Protective activity in vivo (whole plant spray) against cucumber downy mildew; conditions: 25 mg/L, comparative test (Table 129)
metric: protective activity (%) against cucumber downy mildew

Clc1ccc(-n2ccc(OCCNc3ncnc4scc(Cl)c34)n2)c(Cl)c1: 100
FC(F)c1ncnc(NCCCOc2ccn(-c3ccc(C(F)(F)F)cc3)n2)c1Cl: 70
Clc1ccc(-n2ccc(OCCNc3ncnc4ccccc34)n2)c(Cl)c1: 100
CCc1ncnc(NCCOc2ccn(-c3c(Cl)cc(Cl)cc3Cl)n2)c1Cl: 100
Fc1ccc(-n2ccc(OCCNc3ncnc4ccccc34)n2)cc1: 100
Clc1ccc(-n2ccc(OCCNc3ncnc4ccccc34)n2)cc1: 96
Clc1cccc(-n2ccc(OCCNc3ncnc4scc(Cl)c34)n2)c1: 100
Clc1csc2ncnc(NCCOc3ccn(-c4ccccc4)n3)c12: 100
Clc1cc(Cl)c(-n2ccc(OCCNc3ncnc4ccccc34)n2)c(Cl)c1: 100
c1ccc(-n2ccc(OCCNc3ncnc4ccccc34)n2)cc1: 70
CC(COc1ccn(-c2ccc(Cl)cc2)n1)Nc1ncnc(Cl)c1Cl (centres unmarked): 100
FC(F)(F)c1ccc(-n2ccc(OCCCNc3ncnc4ccccc34)n2)cc1: 70
Cc1ncnc(NCCOc2ccn(-c3c(Cl)cc(Cl)cc3Cl)n2)c1Cl: 100
Clc1ccccc1-n1ccc(OCCNc2ncnc3scc(Cl)c23)n1: 100
Clc1cccc(-n2ccc(OCCNc3ncnc4ccccc34)n2)c1: 100
Cc1ncnc(NCCOc2ccn(-c3c(Cl)cccc3Cl)n2)c1Cl: 100
FC(F)(F)c1ccc(-n2ccc(OCCNc3ncnc4scc(Cl)c34)n2)cc1: 80

====

Some molecules, each annotated with its measured inhibition at 25 µg/mL.
test system: cucumber downy mildew; assay: Protective activity in vivo (whole plant spray) against cucumber downy mildew; details: Cucumis sativus; 25 mg/L, comparative test (Table 129); read-out: protective activity (%) against cucumber downy mildew
metric: inhibition at 25 µg/mL

CCc1ncnc(NCc2cnn(-c3ccccc3)c2C(F)(F)F)c1Cl: 20%
Cc1nc(C)c(C)c(N(C)Cc2cnn(-c3ccccc3)c2)n1: 0%
Cc1cc(N(C)Cc2cnn(-c3ccccc3)c2)nc(C(C)C)n1: 0%
CC(COc1ccn(-c2ccc(Cl)cc2)n1)Nc1ncnc2scc(Cl)c12 (stereo not drawn): 100%
CCc1ncnc(NCc2cnn(-c3ccccc3)c2C)c1Cl: 20%
Cc1cc(N(C)Cc2c(C)nn(-c3ccccc3)c2C)nc(C)n1: 0%
